Values from PubChem BioAssay

I'd be grateful if you could share measured GFP response vs DMSO for these entries.
- Measurement notes: modulators of MEP2-GFP levels in yeast, confirmation, S. cerevisiae, flow cytometry GFP, cherry picks (AID 2272);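 note: ratio of well signal to plate DMSO mean so 100% equals DMSO level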
- Reported conditions: S. cerevisiae MEP2-GFP strain, 3 h, at 10 µM, stronger effect = higher value
I only need the number, in %, no unit after it.

Consider the compound Cc1ccc(NC(=O)COc2ccc(Br)cc2C)cc1 and give its measured GFP response vs DMSO.
104

Moving on to Cc1cccn2c(N)c(-c3ccccc3)nc12
106

Moving on to Cc1ccc(-n2nnnc2C(Cl)(Cl)c2nnnn2-c2ccc(C)cc2)cc1
112

Moving on to CCCNC(=O)COC(=O)c1ccc(S(=O)(=O)N2CCCC2)cc1
98.8

Moving on to Cc1cccc(C)c1OCCOC(=O)c1n[nH]c2ccccc12
106

Moving on to O=C(OCC(=O)N1CCN(C(=O)c2ccco2)CC1)c1cc(-c2ccc(F)cc2)nc2ccccc12
125

Moving on to Cc1ccc(N2CCN(C(=O)c3ccccc3Br)CC2)c(C)c1
98.3

Moving on to CC(C)c1nnc(NC(=O)c2nc(S(=O)(=O)Cc3ccccc3)ncc2Cl)s1
106

Moving on to CSc1ccc(/C=C/C(=O)c2ccc(NC(=O)C(C)C)cc2)cc1
100

Moving on to O=C(c1cc(-c2cccc(Cl)c2)on1)N1CCc2ccccc2C1
99

* * *

I'd be grateful if you could share measured fluorescence change (kMESF span) for these entries.
- Measurement notes: compound autofluorescence in yeast s288c, dose response, artefact control for yeast TOR pathway GFP screen, s288c strain (AID 2757);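 note: thousands of bead-calibrated equivalent soluble fluorophore molecules from median cell fluorescence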
- Reported conditions: S. cerevisiae s288c, 520 nm autofluorescence, flow cytometry, 3 h; at 33 µM; stronger effect = higher value; zero means same as solvent-only cells
The list shows a part of the results.
Give the value as a plain number.

Consider the molecule C[n+]1ccc(/C=C/c2c[nH]c3ccccc23)cc1 and give its measured fluorescence change (kMESF span).
5.54

Moving on to Oc1ccc(Br)cc1/C=N/Nc1ccccn1
1.31

Moving on to Oc1c(CN2CCN(c3ccc(F)cc3)CC2)cc(Cl)c2cccnc12
0.21

Moving on to Nc1c(C(=O)c2cccs2)sc2nsc(SCCN3CCCCC3)c12
17.9

* * *

I'd be grateful if you could share measured GFP response relative to DMSO for these entries.
- Measurement notes: LAP4-GFP expression modulators in yeast, confirmation, cell-based, cherry picks, flow cytometry, mother/daughter gates (AID 2271);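 note: ratio of sample to DMSO plate mean so 100% equals DMSO level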
- Reported conditions: S. cerevisiae LAP4-GFP strain, 3 h, measured here: daughter cell gate response, at 10 µM, stronger effect = higher value, 100 means same as DMSO control

Consider the compound O=C(CN1CCN(Cc2ccccc2Cl)C1=O)NC1CCCCCCC1 and give its measured GFP response relative to DMSO.
97.6%

Moving on to CCOc1ccc(N2C(=O)C(Cl)=C(Nc3ccccc3O)C2=O)cc1
99.3%

Moving on to CN1CC(=O)NC1=NC(=O)C12CC3CC(CC(C3)C1)C2
97.9%

Moving on to Cc1c(CC(C)C)nc(N)c(C#N)c1-c1ccccc1
89.3%

Moving on to COc1ccc(/C=C/C(=O)c2c(O)cc(C)oc2=O)c(OC)c1
101%

Moving on to O=C(O)C1Sc2[nH]c(=O)sc2C2c3cc(Br)ccc3OC(=O)C12 (stereo not drawn)
150%

Moving on to O=C(O/N=C(\c1ccccc1)c1ccncc1)c1ccccc1Cl
118%

Moving on to COc1cccc2c1Oc1ncccc1N(C(=O)CCC(=O)NCc1ccc(C)cc1)C2
94.2%

Moving on to Cc1ccc(N2C(=O)C(Cl)=C(Nc3c(C)n(C)n(-c4ccccc4)c3=O)C2=O)cc1
101%

Moving on to Cc1ccc2[nH]c(C)c(/C=C/c3cc[n+](C)cc3)c2c1
210%

Moving on to Cc1ccc(/C=N/NC(=O)c2ccccn2)s1
95.9%

Moving on to COCCN(CCOC)S(=O)(=O)c1ccc(C(=O)Nc2nnc(C3CC3)o2)cc1
94.1%

Moving on to CCOC(=O)c1cnn(-c2cc(C)nc3c(-c4ccccc4)c(C)nn23)c1N
96%

Moving on to COc1ccc(NC2=C(Cl)C(=O)N(CCc3ccccc3)C2=O)c(OC)c1
101%

Moving on to Cc1[nH]c(-c2ccccn2)nc(=S)c1Cl
215%

Moving on to COc1ccc(-c2nnc(NC(=O)c3ccc(S(=O)(=O)N4COCC4(C)C)cc3)o2)cc1
92.9%

Moving on to CC(=O)Nc1ccc(NC(=O)CSc2ncc(C(=O)Nc3ccccc3)c(=O)n2C)cc1
97.5%

Moving on to Cc1c(Cc2ccccc2)c(NCCN(C)C)n2c(nc3ccccc32)c1C#N
167%

Moving on to COc1ccc(NC(=O)C2C3C=CC(C3)C2C(=O)NCc2ccco2)c(OC)c1 (stereo not drawn)
96%

Moving on to CN(C(=O)c1ccccc1Cl)c1ccccc1
96%

Moving on to CC(C)NC(=O)c1ccccc1-c1nc(-c2ccccc2Cl)no1
103%

Moving on to COC(=O)c1ccc2nc(Nc3nc4ccc(F)cc4s3)sc2c1
84.8%

Moving on to COc1ccc(-c2[nH]ncc2N=Nc2ccccc2)cc1
104%

* * *

I'd be grateful if you could share measured GFP response vs DMSO for these entries.
- Measurement notes: RPL19A-GFP modulators, yeast TOR pathway, confirmation, cell-based, S. cerevisiae, flow cytometry, cherry picks, mother/daughter gates (AID 2270)
- Reported conditions: S. cerevisiae RPL19A-GFP strain, 3 h, at 10 µM, stronger effect = lower value, 100 = same GFP as DMSO wells
I only need the number, in %, no unit after it.

Consider the compound Cc1nnc(NC(=O)c2csc3c2CCC(C)C3)s1 (stereo not drawn) and give its measured GFP response vs DMSO.
91.5

Moving on to COc1cc(NC(=O)c2ccc(C)cc2C)ccc1NC(=O)c1cc2ccccc2o1
97.1

Moving on to COc1ccc(-c2nnc(NC(=O)c3ccc(S(=O)(=O)N4COCC4(C)C)cc3)o2)cc1
96.5

Moving on to Cc1ccc(C(C(=O)NC2CCCCC2)N(CCCN2CCOCC2)C(=O)c2snc(C(N)=O)c2N)cc1 (stereo not drawn)
101

Moving on to CCC(C(=O)O)n1nc(-c2ccccc2)c2cc(Cl)ccc21 (stereo not drawn)
98.7

Moving on to CC1(C)CCN2CCC(C)(C)c3c(O)ccc1c32
105

Moving on to O=C(Nc1c(-c2ccccc2)nc2ccccn12)c1ccco1
100

Moving on to Cc1ccccc1C(=O)NNC(=S)NC(=O)c1ccc(Cl)cc1Cl
104

Moving on to Cc1cc(C)c2c(c1)/C(=C/C(=O)c1ccc(Br)s1)C(=O)N2
104

Moving on to CNC(=O)/C(C#N)=C/c1c(N2CCCCCC2)nc2ccccn2c1=O
98.7

Moving on to O=C(/C=C/c1ccc(F)cc1)c1ccccc1Br
98

Moving on to Cc1ccc(NC(=O)c2nc(S(=O)(=O)Cc3ccccc3C)ncc2Cl)cc1C
91.6

Moving on to CCN1CCN(C(=O)C2CCN(c3nnc(C)c4c(C)n(-c5ccc(C)cc5)nc34)CC2)CC1
97.2

Moving on to CN1CCN(C(=O)CC2C(=O)NCCN2Cc2ccc(-c3ccccc3)cc2)CC1 (stereo not drawn)
96.2

Moving on to CCCc1[nH]nc2c1C(c1ccc(OC(=O)N3CCOCC3)cc1)C(C#N)=C(N)O2 (stereo not drawn)
98.2

Moving on to COc1cccc(N=Nc2ccc(O)c3ncccc23)c1
98.2

Moving on to CCCCC1OC23CCCCC2C(C#N)(C(=N)O3)C1(C#N)C#N (stereo not drawn)
101

Moving on to COc1ccc(CCNC2=C(Cl)C(=O)N(CCc3ccccc3)C2=O)cc1OC
101

Moving on to CCc1ccc(C(=O)/C=C/c2ccc([N+](=O)[O-])o2)cc1
104

Moving on to CN(C)CCCN(C(=O)c1cccs1)c1nc(-c2ccccc2)cs1
98

Moving on to COc1ccc(-c2nc(-c3ccccc3OC)no2)cc1OC
100

Moving on to COc1cccc2c1Oc1ncccc1N(C(=O)CCC(=O)NCc1ccc(F)cc1)C2
98

Moving on to Cc1ccccc1OCC(=O)NNC(=S)NC(=O)c1ccco1
122

Moving on to O=Nc1c(O)c2ccccc2c2ccccc12
113

Moving on to Cc1cccc(NC(=O)c2ccccc2O)c1C
97.3

Moving on to O=C1c2cccc3cccc(c23)C(=O)N1c1cccnc1
100

Moving on to CCOC(=O)Cc1csc(NC(=O)CSc2nnc(-c3ccc(C)cc3)o2)n1
101

Moving on to COc1ccc(-c2cc3cc(C(=O)O)ccn3c2C(=O)c2ccccc2)cc1
97

Moving on to Cc1cc(NCCOCCO)n2ncc(-c3ccc(Cl)cc3)c2n1
94.3

Moving on to COc1ccc(C(=O)/C=C2/C(=O)Nc3ccccc32)cc1OC
98.2

Moving on to Cc1cccc(CS(=O)(=O)c2ncc(Cl)c(C(=O)NCc3ccccc3)n2)c1
99

Moving on to Cc1ccccc1NC(=O)c1ccccc1O
94

Moving on to CCOc1cc(/C=C2\N=C(C)OC2=O)cc(Cl)c1OCC(=O)OC
105

Moving on to Cc1ccc(Sc2ncnc3onc(C)c23)cc1
95.4

Moving on to C=CCn1c(=N)c(C#N)cc2c(=O)n3ccccc3nc21
98

Moving on to N#Cc1ccc(Sc2ccccn2)c([N+](=O)[O-])c1
102

Moving on to C[n+]1ccc(/C=C/c2c[nH]c3ccccc23)cc1
107

Moving on to CCCc1nn(C)c2c1C(c1cccnc1)C(C#N)=C(N)O2 (stereo not drawn)
101
